Recorded measurements of pKi, one per entry
Tgt: 5-HT2A receptor (Homo sapiens (Human))
Experimental protocol: Radioligand binding assay ([3H]5-HT competition), 5-HT2A
Study conditions: [3H]5-HT radioligand, membranes of HEK293 cells expressing recombinant 5-HT2A; Ki from IC50 by Cheng-Prusoff; read-out: 5-HT2A serotonin binding Ki value
Scale note: pKi = -log10(concentration in M).

* Cc1noc(C)c1-c1cc(NC(=O)c2ccccc2)ccc1OCCN1CCC1 | 8.03
* Cc1cnoc1C(=O)Nc1ccc(OC[C@H]2CCCCN2)c(-c2c(C)noc2C)c1 | 7.82
* Cc1noc(C)c1-c1cc(NC(=O)Cc2cncc(F)c2)ccc1OC[C@H]1CCCCN1 | 7.98
* COc1cccc(CC(=O)Nc2ccc(OCCN3CCC3)c(-c3c(C)noc3C)c2)c1 | 7.97
* Cc1ncoc1C(=O)Nc1ccc(OC[C@H]2CCCCN2)c(-c2c(C)noc2C)c1 | 7.99

Data request: Any idea what pKi was measured for "Cc1noc(C)c1-c1cc(NC(=O)C2CC2)ccc1OCCN1CC2(COC2)C1" ?
Data returned: 7.66

Data request: For "COCC1(C(=O)Nc2ccc(OC[C@H]3CCCCN3)c(-c3c(C)noc3C)c2)CC1" , what is its reported pKi?
Data returned: 7.60

Data request: Quick check: pKi of "Cc1noc(C)c1-c1cc(NC(=O)c2ncoc2C)ccc1OC[C@H]1CCCCN1" ?
Data returned: 8.06

---

Tgt: 5-HT2A receptor (Homo sapiens (Human), UniProt P28223)
Sequence (P28223 whole entry): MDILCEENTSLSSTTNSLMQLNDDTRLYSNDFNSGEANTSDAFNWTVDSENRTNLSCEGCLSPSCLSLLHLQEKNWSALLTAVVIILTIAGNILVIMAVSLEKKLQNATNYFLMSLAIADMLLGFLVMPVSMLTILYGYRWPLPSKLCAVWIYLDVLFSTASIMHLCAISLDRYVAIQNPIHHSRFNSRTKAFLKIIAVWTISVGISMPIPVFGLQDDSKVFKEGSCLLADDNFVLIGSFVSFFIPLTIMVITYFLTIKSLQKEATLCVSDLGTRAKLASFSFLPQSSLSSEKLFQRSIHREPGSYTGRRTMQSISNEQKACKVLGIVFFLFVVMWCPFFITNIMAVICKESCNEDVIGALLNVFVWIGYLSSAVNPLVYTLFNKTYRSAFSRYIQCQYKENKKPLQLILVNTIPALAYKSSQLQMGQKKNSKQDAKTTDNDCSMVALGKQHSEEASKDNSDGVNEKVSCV
Experimental protocol: Radioligand binding assay ([3H]5-HT competition), 5-HT2A
Study conditions: [3H]5-HT radioligand, membranes of HEK293 cells expressing recombinant 5-HT2A; Ki from IC50 by Cheng-Prusoff; read-out: 5-HT2A serotonin binding Ki value
pKi: −log10 of the molar value.
Note to self: values exactly at 8 are Yes. So pKi at or above 8 is Yes, below is No.

Data request: Please check the record "Cc1noc(C)c1-c1cc(NC(=O)C2CC2)ccc1OCCN1[C@@H]2COC[C@H]1C2" and state if its pKi is at or above 8.
Data returned: Yes

Data request: Decide: pKi of "Cc1noc(C)c1-c1cc(NC(=O)C2CC2)ccc1OCCN(C)C1CCC1" >= 8?
Data returned: No

Data request: Does pKi meet or surpass 8 for "Cc1noc(C)c1-c1cc(NC(=O)Cc2ccccc2)ccc1OC[C@H]1CCCCN1" ?
Data returned: Yes

Data request: Check this molecule for pKi at or above 8: "COc1cccc(C(=O)Nc2ccc(OCCN3CCC3)c(-c3c(C)noc3C)c2)c1"
Data returned: Yes

---

Tgt: UniProt:P28223
Experimental protocol: Radioligand binding assay ([3H]5-HT competition), 5-HT2A
Study conditions: [3H]5-HT radioligand, membranes of HEK293 cells expressing recombinant 5-HT2A; Ki from IC50 by Cheng-Prusoff; read-out: 5-HT2A serotonin binding Ki value
pKi: −log10 of the molar value.
Criterion: pKi meeting or surpassing 8. Met: Condition met. Not met: Condition not met.

Consider the following illustrative entries.
- Cc1noc(C)c1-c1cc(NC(=O)c2cc(Cl)ccn2)ccc1OCCN1CCCC1: Condition met
- CO[C@@H]1CCN(CCOc2ccc(NC(=O)C3CC3)cc2-c2c(C)noc2C)C1: Condition met
- Cc1noc(C)c1-c1cc(NC(=O)C2CC2)ccc1OCCN1CCC12COC2: Condition not met
- Cc1noc(C)c1-c1cc(NC(=O)[C@@H]2C[C@H]2F)ccc1OCCN1CCCC1: Condition met

Data request: Does the reported pKi for "Cc1noc(C)c1-c1cc(NC(=O)C2(F)CC2)ccc1O[C@@H]1CCCNC1" fall at or above the 8 mark?
Data returned: Condition not met
